Values compiled from the supplement of paper PMC10307832.

Please provide measured relative viability for the entries that follow.
Tested on: NCI-H647
procedureSummary: relative viability (nuclei count vs DMSO), 5 days (fraction); higher = more cells survive
experimentalContext: first compound 8 µM
Numbers only.

For each of the items listed, what is its relative viability?
1. O=c1cc(-c2cccc3c2Sc2ccccc2S3)oc(N2CCOCC2)c1 + C[C@@H](Oc1cc(-c2cnn(C3CCNCC3)c2)cnc1N)c1c(Cl)ccc(F)c1Cl [Crizotinib] (partner 1 µM)
2. O=c1cc(-c2cccc3c2Sc2ccccc2S3)oc(N2CCOCC2)c1 + Nc1ncn([C@H]2C[C@H](O)[C@@H](CO)O2)c(=O)n1 [Decitabine] (partner 2 µM)

[1.12, 0.45]

For each of the items listed, what is its relative viability?
1. O=c1cc(-c2cccc3c2Sc2ccccc2S3)oc(N2CCOCC2)c1 + O=C(c1cc(Cc2n[nH]c(=O)c3ccccc23)ccc1F)N1CCN(C(=O)C2CC2)CC1 [Olaparib] (partner 8 µM)
2. O=c1cc(-c2cccc3c2Sc2ccccc2S3)oc(N2CCOCC2)c1 + CCNC(=O)c1noc(-c2cc(C(C)C)c(O)cc2O)c1-c1ccc(CN2CCOCC2)cc1 [Luminespib] (partner 0.01 µM)
3. O=c1cc(-c2cccc3c2Sc2ccccc2S3)oc(N2CCOCC2)c1 + CC(C)C[C@H](NC(=O)[C@H](Cc1ccccc1)NC(=O)c1cnccn1)B(O)O [Bortezomib] (partner 0.002 µM)

0.272
0.161
1.57
